system: MFM-223; experiment: drug sensitivity score (DSS), CellTiter-Glo (DSS (AUC-based score)); higher = stronger drug effect (viability inhibition or cytotoxicity); extreme values may be limits of the assay; settings: incubation time: 72 h
Entry flag: rule met if drug sensitivity score reaches 7; rule not met if it does not.

[
  {
    "Compound smiles": "CC(C)C[C@@H](C(=O)N[C@H](C(=O)OC1CCCC1)c1ccccc1)[C@H](O)C(=O)NO",
    "Class": "rule not met"
  }
]

Proceed to the following item.
Qu. Threshold query (drug sensitivity score >= 7) on `CO[C@H]1C[C@@H]2CC[C@@H](C)[C@@](O)(O2)C(=O)C(=O)N2CCCC[C@H]2C(=O)O[C@H]([C@H](C)C[C@@H]2CC[C@@H](OP(C)(C)=O)[C@H](OC)C2)CC(=O)[C@H](C)/C=C(\C)[C@@H](O)[C@@H](OC)C(=O)[C@H](C)C[C@H](C)/C=C/C=C/C=C/1C`
Ans. rule not met

###

Form field: EC50, CellTiter-Blue viability (one value per entry).
test system: MDA-MB-436; conditions: 72 h
Reply numerically in nM, unit not repeated.

Please review the entries below; each comes with its answer.
[
  {
    "Compound smiles": "c1ccc2c(CCNc3ccc(Nc4ccncc4)cc3)c[nH]c2c1",
    "Uom": "nM",
    "EC50, CellTiter-Blue viability": 540
  },
  {
    "Compound smiles": "CCc1c2c(nc3ccc(OC(=O)N4CCC(N5CCCCC5)CC4)cc13)-c1cc3c(c(=O)n1C2)COC(=O)[C@]3(O)CC",
    "Uom": "nM",
    "EC50, CellTiter-Blue viability": 1010
  },
  {
    "Compound smiles": "Cc1cc(Nc2cc(CN3CCOCC3)c3nc(C)c(Cc4ccc(Cl)cc4F)n3n2)n[nH]1",
    "Uom": "nM",
    "EC50, CellTiter-Blue viability": 1080
  }
]

Qu. Reported EC50, CellTiter-Blue viability, molecule `COC(=O)c1ccc2c(c1)NC(=O)/C2=C(\Nc1ccc(N(C)C(=O)CN2CCN(C)CC2)cc1)c1ccccc1` : ____
Ans. 9110

###

system: SK-BR-3; experiment: normalised response (% of control), CellTiter-Glo; higher = more viable cells (100 = DMSO, 0 = benzethonium chloride kill control); details: incubation time: 72 h
Form field: normalised response (one value per entry).
Reply numerically in %, unit not repeated.

[
  {
    "Compound": "COc1cc2c(NC3CCN(C(C)C)CC3)nc(N3CCC(F)(F)CC3)nc2cc1OCCCN1CCCC1 [UNC0642] (10 nM)",
    "normalised response, %": 108
  }
]

Qu. Reported normalised response, compound O=C(Nc1cccnc1)N1CCC(Cc2cccc(Oc3ccc(C(F)(F)F)cn3)c2)CC1 [PF-3845] (1000 nM) : ____
Ans. 101

###

test system: SK-BR-3; assay: drug sensitivity score (DSS), CellTiter-Blue viability (DSS (AUC-based score)); higher = stronger viability inhibition; extreme values may be limits of the assay; details: incubation time: 72 h
Form field: drug sensitivity score (one value per entry).
Returns: the value as a bare number; no unit string appended.

Please review the entries below; each comes with its answer.
[
  {
    "Compound smiles": "N#Cc1ccc(COC[C@H]2O[C@@H](n3c(NCc4ccc(Cl)c(Cl)c4)nc4c(N)ncnc43)[C@H](O)[C@@H]2O)cc1",
    "drug sensitivity score": 1.46
  },
  {
    "Compound smiles": "CN(C)c1nc(N(C)C)nc(N(C)C)n1",
    "drug sensitivity score": 0
  }
]

Qu. Reported drug sensitivity score, compound `COc1cc(OC2CCN(C)CC2)ccc1Nc1ncc2c(n1)n(C1CCCC1)c(=O)n2C` : ____
Ans. 2.13

###

system: CAL-120; assay: drug sensitivity score (DSS), CellTiter-Blue viability (DSS (AUC-based score)); higher = stronger viability inhibition; extreme values may be limits of the assay; conditions: incubation time: 72 h
Result type: drug sensitivity score

[
  {
    "Compound": "O=P1(N(CCCl)CCCl)NCCCO1 (centres undefined) [Cyclophosphamide]",
    "Recorded result": 0
  },
  {
    "Compound": "O=C(/C=C/c1cccc(S(=O)(=O)Nc2ccccc2)c1)NO [Belinostat]",
    "Recorded result": 19
  },
  {
    "Compound": "C=C1C[C@@H]2[C@H](CC[C@]3(C)C(=O)CC[C@@H]23)[C@@]2(C)C=CC(=O)C=C12 [Exemestane]",
    "Recorded result": 0
  },
  {
    "Compound": "O=C(Nc1ccncc1)C(=O)c1cn(Cc2ccc(Cl)cc2)c2ccccc12 [Indibulin]",
    "Recorded result": 22.2
  },
  {
    "Compound": "CC(C)C[C@@H](C(=O)N[C@H](C(=O)OC1CCCC1)c1ccccc1)[C@H](O)C(=O)NO [Tosedostat]",
    "Recorded result": 12.7
  },
  {
    "Compound": "CN(C)c1nc(N(C)C)nc(N(C)C)n1 [Altretamine]",
    "Recorded result": 0
  }
]

// below: drug sensitivity score requested for another compound
Qu. Reported drug sensitivity score, compound NC(=O)c1ccc(I)c([N+](=O)[O-])c1 [Iniparib] : ____
Ans. 1.19

###

Form field: normalised viability (one value per entry).
test system: MDA-MB-468; test: normalised viability (% of control), CellTiter-Blue; higher = more viable cells (about 100 = DMSO control); conditions: 10 nM; incubation time: 72 h
Reply numerically in %, unit not repeated.

Qu. Reported normalised viability, compound `O=C(Nc1ccncc1)C(=O)c1cn(Cc2ccc(Cl)cc2)c2ccccc12` : ____
Ans. 95.7

Qu. Reported normalised viability, compound `N#Cc1ccc(COC[C@H]2O[C@@H](n3c(NCc4ccc(Cl)c(Cl)c4)nc4c(N)ncnc43)[C@H](O)[C@@H]2O)cc1` : ____
Ans. 108

Qu. Reported normalised viability, compound `COc1cc2/c(=N/c3ccc(Br)cc3F)nc[nH]c2cc1OCC1CCN(C)CC1` : ____
Ans. 89.8

Qu. Reported normalised viability, compound `NC(=O)c1ccc(I)c([N+](=O)[O-])c1` : ____
Ans. 97.9

Qu. Reported normalised viability, compound COCC1(CO)C(=O)C2CCN1CC2 (stereo not given) : ____
Ans. 104

###

test system: MFM-223; assay: drug sensitivity score (DSS), CellTox Green (DSS (AUC-based score)); higher = stronger drug effect (viability inhibition or cytotoxicity); extreme values may be limits of the assay; settings: incubation time: 72 h
Form field: drug sensitivity score (one value per entry).

[
  {
    "Compound": "N#Cc1ccc(COC[C@H]2O[C@@H](n3c(NCc4ccc(Cl)c(Cl)c4)nc4c(N)ncnc43)[C@H](O)[C@@H]2O)cc1",
    "drug sensitivity score": 3.38
  }
]

Qu. Short answer please: drug sensitivity score, MFM-223, entry COCC[n+]1c2c(n(Cc3cnccn3)c1C)C(=O)c1ccccc1C2=O [YM155]
Ans. 11.4

Qu. Short answer please: drug sensitivity score, MFM-223, entry CNC(=O)c1ccc(N2C(=S)N(c3ccc(C#N)c(C(F)(F)F)c3)C(=O)C2(C)C)cc1F [Enzalutamide]
Ans. 0

Qu. Short answer please: drug sensitivity score, MFM-223, entry CNC(=O)c1ccc(N2C(=S)N(c3ccc(C#N)c(C(F)(F)F)c3)C(=O)C23CCC3)cc1F [RD162]
Ans. 0

###

system: CAL-85-1; experiment: normalised response (% of control), CellTiter-Glo; higher = more viable cells (100 = DMSO, 0 = benzethonium chloride kill control); conditions: incubation time: 72 h
Form field: normalised response (one value per entry).

Please review the entries below; each comes with its answer.
[
  {
    "Molecule": "O=C(Nc1ccncc1)C(=O)c1cn(Cc2ccc(Cl)cc2)c2ccccc12 [Indibulin] (10000 nM)",
    "normalised response": "43%"
  },
  {
    "Molecule": "O=C(/C=C/c1cccc(S(=O)(=O)Nc2ccccc2)c1)NO [Belinostat] (10000 nM)",
    "normalised response": "6.45%"
  },
  {
    "Molecule": "N#Cc1ccc(COC[C@H]2O[C@@H](n3c(NCc4ccc(Cl)c(Cl)c4)nc4c(N)ncnc43)[C@H](O)[C@@H]2O)cc1 (10000 nM)",
    "normalised response": "86.3%"
  }
]

// below: normalised response requested for another molecule
Qu. Reported normalised response, molecule CCc1c2c(nc3ccc(OC(=O)N4CCC(N5CCCCC5)CC4)cc13)-c1cc3c(c(=O)n1C2)COC(=O)[C@]3(O)CC [Irinotecan] (10000 nM) : ____
Ans. 63.6%

###

Form field: normalised response (one value per entry).
system: CAL-148; assay: normalised response (% of control), CellTox Green; higher = less cell death (100 = DMSO, 0 = benzethonium chloride kill control); settings: incubation time: 72 h
Reply numerically in %, unit not repeated.

[
  {
    "Molecule": "COc1cc2c(NC3CCN(C(C)C)CC3)nc(N3CCC(F)(F)CC3)nc2cc1OCCCN1CCCC1 [UNC0642] (10000 nM)",
    "Tested on": "CAL-148",
    "Result type": "normalised response",
    "Recorded result": 44.5
  }
]

Qu. Reported normalised response, molecule CCOC(=O)CCNc1cc(N2CCc3ccccc3CC2)nc(-c2ccccn2)n1 [GSK-J4] (10000 nM) : ____
Ans. 53.5

Qu. Reported normalised response, molecule CNC(=O)c1cccc(-c2ccc3c(N4CCOC[C@@H]4C)nc(N4CCOC[C@@H]4C)nc3n2)c1 [AZD2014] (100 nM) : ____
Ans. 83.9

Qu. Reported normalised response, molecule NC(=O)c1ccc(I)c([N+](=O)[O-])c1 [Iniparib] (1000 nM) : ____
Ans. 82.5
